Sourced from the supplement of paper PMC6897291

- System: RIVA
- METHOD NOTES: growth inhibition by drug alone (1 - RLU/untreated control) (fraction); higher = stronger inhibition
- MEASUREMENT CONTEXT: 10 nM; time (day): 5; 177Lu-lilotomab satetraxetan 0 ug/ml
Given measured growth inhibition by drug alone, output label 1 if it is greater than or equal to -0.02 and label 0 if not.

Incoming: Could you tell me if the measured growth inhibition by drug alone of O=C1NC(=O)/C(=C\c2cccc(C(F)(F)F)c2)S1 reaches -0.02 or more?
Outgoing: label 0

Incoming: COc1ccc(-c2ccc3c(N4CCOC[C@@H]4C)nc(N4CCOC[C@@H]4C)nc3n2)cc1CO ?
Outgoing: label 0

Incoming: Cn1c(=O)c(F)c(Nc2ccc(I)cc2F)c2c(=O)n(C[C@@H](O)CO)cnc21 ?
Outgoing: label 0

Incoming: COc1ccc(COc2cc3oc(=O)c4cc(C(C)O)ccc4c3cc2OC)cc1 (stereo not given) [Palomid 529] ?
Outgoing: label 1

Incoming: CC(C)c1onc(-c2c(Cl)cccc2Cl)c1COc1ccc(/C=C/c2cccc(C(=O)O)c2)c(Cl)c1 ?
Outgoing: label 1
